# testedOn: ABHD16A (Homo sapiens, UniProt O95870)
# Sequence (O95870 whole entry): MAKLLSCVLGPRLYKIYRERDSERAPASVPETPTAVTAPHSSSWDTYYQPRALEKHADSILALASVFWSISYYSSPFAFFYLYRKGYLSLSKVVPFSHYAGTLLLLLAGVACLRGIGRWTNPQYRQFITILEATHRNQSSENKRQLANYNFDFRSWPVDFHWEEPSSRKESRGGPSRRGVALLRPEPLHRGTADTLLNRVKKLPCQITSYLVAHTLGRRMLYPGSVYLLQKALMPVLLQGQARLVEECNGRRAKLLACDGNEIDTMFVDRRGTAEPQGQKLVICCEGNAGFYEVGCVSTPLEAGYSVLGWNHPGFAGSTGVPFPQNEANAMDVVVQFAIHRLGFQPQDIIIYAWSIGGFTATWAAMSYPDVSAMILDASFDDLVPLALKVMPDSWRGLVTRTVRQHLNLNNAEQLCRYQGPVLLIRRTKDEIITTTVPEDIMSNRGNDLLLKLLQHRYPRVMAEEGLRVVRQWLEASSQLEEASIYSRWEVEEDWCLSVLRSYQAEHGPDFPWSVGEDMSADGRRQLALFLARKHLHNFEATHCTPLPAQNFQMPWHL
# testName: competitive gel-based ABPP, K562 cells treated in situ
# Format: cell-based
# conditionLabel: in situ IC50 for ABHD16A, 4 h treatment, 37 °C

{"molecule": "CCCCCCCCCCCCCC1OC(=O)/C1=C\\CCCCC(N)=O (stereo not shown) [KC01]", "IC50": "~300 nM"}

----------
# testedOn: ABHD16A (Homo sapiens)
# testName: PS substrate
# Assay type: biochemical
# conditionLabel: 95% interval for the reported IC50 value, human ABHD16A PS lipase activity
pIC50: −log10 of the molar value.

{"compound": "CCCCCCCCCCCCCC1OC(=O)/C1=C\\CCCCC(N)=O (stereo not shown) [KC01]", "pIC50": "6.98 to 7.16"}
